Entry source: patent US11214803B2

- Test system: Yap1 mRNA
- assayProcedure: Antisense inhibition of human Yap1 in A-431 cells by cEt gapmers, single dose (Example 4, RTS4814)
- Assay type: cell-based
- runParameters: Table 14; A-431 cells, 5,000 cells per well, free uptake, 2,000 nM, approximately 48 hours; RTS4814; normalized to RIBOGREEN; Yap1 mRNA relative to untreated control; * = targets amplicon region of primer probe set
Strand notation (5' to 3'): a small letter for the sugar, then the base; units joined by * are phosphorothioate-linked, units joined directly phosphodiester-linked; [ ] holds rarer units or linkages, { } end groups; capitals alone tell only the bases. k = constrained ethyl (cEt); [5mC] = 5-methylcytosine; d = 2'-deoxy (DNA)
Think of 20 % UTC as a floor: if YAP1 (% UTC) stands on it or above, it is Yes; beneath it, No.

# count of solved cases: 7
# substance, assayedTarget, discreteLabel
rows = [
    ("1074944 (antisense kA*kA*kA*dA*d[5mC]*d[5mC]*d[5mC]*dT*dT*dT*dG*dG*dT*k[5mC]*kT*k[5mC]) [Compound 1074944]", "Yap1 mRNA", "Yes"),
    ("1075680 (kA*kT*kT*dA*dT*dT*dA*d[5mC]*d[5mC]*d[5mC]*d[5mC]*dT*dT*k[5mC]*kT*kA; antisense) [Compound 1075680]", "Yap1 mRNA", "Yes"),
    ("1076448 (k[5mC]*kT*kT*dA*dT*dA*dA*dT*dG*d[5mC]*dA*dA*dT*k[5mC]*k[5mC]*kT; antisense) [Compound 1076448]", "Yap1 mRNA", "No"),
    ("1074176 (antisense k[5mC]*kT*k[5mC]*d[5mC]*d[5mC]*d[5mC]*d[5mC]*dG*dA*d[5mC]*dG*d[5mC]*dG*k[5mC]*kA*k[5mC]) [Compound 1074176]", "Yap1 mRNA", "Yes"),
    ("1076384 (kT*kA*kT*dA*dA*dG*dG*dG*dA*d[5mC]*dT*dT*dG*k[5mC]*kT*kG; antisense) [Compound 1076384]", "Yap1 mRNA", "Yes"),
    ("1075648 (kT*k[5mC]*kA*dA*dT*dA*dA*dA*dG*dT*dG*dG*dG*kA*k[5mC]*kT; antisense) [Compound 1075648]", "Yap1 mRNA", "Yes"),
    ("1074336 (antisense k[5mC]*k[5mC]*kA*dG*dT*dG*dT*dT*dG*dG*dT*dA*dA*k[5mC]*kT*kG) [Compound 1074336]", "Yap1 mRNA", "Yes"),
]

# bool: YAP1 (% UTC) of 958499 (kA*kT*kT*dA*dG*dA*dG*dT*dA*dT*dG*dT*dG*kG*k[5mC]*kA) [Compound 958499] >= 20 % UTC
No
